Provide the recorded binding signal for the entries that follow.
Molecular target: MBP-FoxP1dN (Mus musculus, UniProt P58462 326-579)
Sequence: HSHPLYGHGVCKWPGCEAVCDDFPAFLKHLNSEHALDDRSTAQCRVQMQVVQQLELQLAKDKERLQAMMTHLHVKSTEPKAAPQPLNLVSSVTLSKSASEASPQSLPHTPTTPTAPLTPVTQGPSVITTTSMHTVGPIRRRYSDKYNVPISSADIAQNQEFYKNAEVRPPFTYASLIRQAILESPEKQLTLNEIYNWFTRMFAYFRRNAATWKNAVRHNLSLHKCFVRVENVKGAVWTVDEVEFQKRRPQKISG
Experiment: PD-seq (MBP pull-down with sequencing); 20 mM Tris-HCl pH 7.5, 100 mM NaCl, 1.5 mM MgCl2, 0.4 uM protein, 0.1 uM dsDNA library, 30 min, room temperature, amylose pull-down; high values mean tight binding
Conditions: protein: recombinant; tags: His6-MBP; chain copies: 2; dsDNA, one strand shown
Whole data set: some 16,000 sequences, median “rpm ratio (pull-down/input)” near 0.94, cut for the highest 2% near 1.7. Many of the other results were omitted from the sample, so the highest values are more common in it than they were.

Respond only with binding signal recorded for GATGATTGTTCTCCCAGCTGATGAATTAGTTATATCGAGTAAACAAATTTTCCTAATCTTTCTGTTCAAGCGCCATCTAC
1.07 RPM ratio (pull-down/input)

Respond only with binding signal recorded for GATGATTGTTCTCCCAGCTGATGAATTTTGTTTCTCGAGTAAACAAATTTTCCTAATCTTTCTGTTCAAGCGCCATCTAC
1.71 RPM ratio (pull-down/input)

Respond only with binding signal recorded for GATGATTGTTCTCCCAGCTGATGAATTGTTTAGCTCGAGTAAACAAATTTTCCTAATCTTTCTGTTCAAGCGCCATCTAC
1.89 RPM ratio (pull-down/input)

Respond only with binding signal recorded for GATGATTGTTCTCCCAGCTGATGAATTTTGCATCTCGAGTAAACAAATTTTCCTAATCTTTCTGTTCAAGCGCCATCTAC
1.52 RPM ratio (pull-down/input)

Where do the numbers come from? From paper PMC12820563.
